# assayProtocol: Plasma pharmacokinetics, acute study (single oral administration)
# Type: in vivo, CD1 female mice
# studyConditions: female, CD1, mouse, plasma, po, 200 mg/kg, plasma analyte, single oral Bio-nFeR 200 mg/kg, Suppl. Table 2 A
# Protocol: The experiments were performed in CD1 female mice, 7 weeks of age, (body weight 25 ± 2 g) obtained from Envigo RMS SrL (Udine, Italy). They were maintained under specific-pathogen-free conditions with constant temperature and humidity, according to institutional guidelines regularly checked by a certified veterinarian. […]
property: AUC(0-t)

Write down AUC(0-t) measured for item CC1=C(/C=C/C(C)=C/C=C/C(C)=C/C(=O)Nc2ccc(O)cc2)C(C)(C)CCC1 [4-HPR, 4-hydroxy (phenyl)retinamide, reference compound]
113 µg·h/mL
